Listing of recorded log10(koff) by entry.
# testSystem: T1, human DLL3 (ACRO, DLL3-H52H4) (human, UniProt Q9NYJ7 27-492)
# T1 construct: Bought
# T1 sequence: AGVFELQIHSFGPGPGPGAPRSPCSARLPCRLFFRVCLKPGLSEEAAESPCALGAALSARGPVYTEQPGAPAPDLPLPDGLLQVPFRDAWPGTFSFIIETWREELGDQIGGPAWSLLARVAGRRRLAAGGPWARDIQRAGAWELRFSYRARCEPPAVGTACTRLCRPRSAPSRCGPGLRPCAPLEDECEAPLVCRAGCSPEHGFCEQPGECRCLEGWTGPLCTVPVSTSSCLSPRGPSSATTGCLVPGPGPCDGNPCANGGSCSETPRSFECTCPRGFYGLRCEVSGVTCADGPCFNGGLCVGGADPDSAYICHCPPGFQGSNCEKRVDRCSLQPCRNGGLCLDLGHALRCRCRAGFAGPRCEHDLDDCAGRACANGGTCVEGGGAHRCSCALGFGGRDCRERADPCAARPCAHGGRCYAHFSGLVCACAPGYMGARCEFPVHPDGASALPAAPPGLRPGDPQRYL
# assayComment: SPR Biacore 8K, Ab captured on Protein A
attributeMeasured: log10(koff) (log10 of the value in s⁻¹)

| binder | log10(koff) |
| --- | --- |
| hu6L4H4 (antibody, human IgG1, kappa, V domains shown) VH: EVQLVQSGAEVKKPGASVKVSCKASGYTFTDYYMNWVRQAPGKRLEWMGIINPYSGVTIYNHKFKGRVTLTVDKSANTAYMELSSLRSEDTAVYYCARQDSLLDYAMDYWGQGTTVTVSS VL: DIQMTQSPSSLSASVGDRVTITCHASQGISGNMGWLQQKPGKAPKGLIYHGANLEDGVPSRFSGSGSGADYTLTISSLQPEDFADYYCVQYAQFPYTFGGGTKVEIKR | -2.97 |
| hu6L3H2 (antibody, human IgG1, kappa, V domains shown) VH: EVQLVQSGAEVKKPGASVKVSCKASGYTFTDYYMNWVRQAPGQRLEWMGIINPYSGVTIYNHKFKGRVTLTVDKSANTAYMELSSLRSEDTAVYYCARQDSLLDYAMDYWGQGTTVTVSS VL: DIQMTQSPSSLSASVGDRVTITCHASQGISGNMGWLQQKPGKSFKGLIYHGANLEDGVPSRFSGSGSGADYTLTISSLQPEDFATYYCVQYAQFPYTFGGGTKVEIKR | -2.94 |
| hu110L1H6 (antibody, human IgG1, kappa, V domains shown) VH: EVQLVQSGAEVKKPGASVKVSCKTSGYTFTDYYMNWVRQAPGQSLEWMGIINPYNVGTSYTQKFKGRVTITVDKSASTAYMELSSLRSEDTAVYYCARHFYDSSYLTYSTMDYWGQGTTVTVSS VL: DIVMTQSPDSLAVSLGERATINCKASENVGIFVSWYQQKPGQSPKLLIYGASNRYTGVPDRFSGSGSATDFTLTISSLQAEDVAVYYCGQSHSYPLTFGQGTKLEIKR | -4.27 |
| hu6L1H3 (antibody, human IgG1, kappa, V domains shown) VH: EVQLVQSGAEVKKPGASVKVSCKASGYTFTDYYMNWVRQAPGQRLEWIGIINPYSGVTIYNHKFKGRATLTVDKSANTAYMELSSLRSEDTAVYYCARQDSLLDYAMDYWGQGTTVTVSS VL: DIQMTQSPSSLSASVGDRVTITCHASQGISGNMGWLQQKPGKAPKGLIYHGANLEDGVPSRFSGSGSGTDFTLTISSLQPEDFATYYCVQYAQFPYTFGGGTKVEIKR | -2.65 |
| hu110L1H4 (antibody, human IgG1, kappa, V domains shown) VH: EVQLVQSGAEVKKPGASVKVSCKTSGYTFTDYYMNWVRQAPGQSLEWMGIINPYSGGTSYTQKFKGRVTITVDKSASTAYMELSSLRSEDTAVYYCARHFYDSSYLTYSTMDYWGQGTTVTVSS VL: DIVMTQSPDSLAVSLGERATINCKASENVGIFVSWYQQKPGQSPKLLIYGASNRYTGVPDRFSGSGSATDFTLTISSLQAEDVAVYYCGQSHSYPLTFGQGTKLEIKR | -4.32 |
